Test system: HCC-2998 colon
Assay: NCI tumour cell line growth inhibition, 48 h; in the data active = GI50 below about 0.43 µM; inactive = the rest
Parameter call: string, one of active, inactive

INPUT: Give the logged outcome of this assay for the following compound: COc1cc2c(c(OC)c1OC)-c1ccc(NNC(N)=S)c(=O)cc1[C@@H](NC(C)=O)CC2
OUTPUT: active

INPUT: Returns: the outcome recorded for COc1cccc(-c2cc(-c3cccc(NS(C)(=O)=O)c3)nc(N)c2C#N)c1O in this assay.
OUTPUT: active

INPUT: Could you kindly confirm the outcome this assay logged for Cc1ccc2c(C)c3c(ccc4ccccc43)c[n+]2c1 ?
OUTPUT: inactive

INPUT: Please indicate how the test categorized OCCN(CCO)c1ncnc2c1ncn2Cc1ccc(CCl)cc1 .
OUTPUT: inactive

INPUT: I'd appreciate the recorded outcome for O=C(NC(=O)c1ccccc1[N+](=O)[O-])Nc1ccc(Oc2ncc(Br)cn2)c(Cl)c1 from this test.
OUTPUT: active

INPUT: // outcome(item) with item = Cc1ccc(CN2CCC(C(=O)Nc3ccc(-c4cc5ccccc5[nH]4)cc3)CC2)o1
OUTPUT: inactive

INPUT: Test call, this compound: Cn1cc(C2=C(c3c4n(c5ccccc35)CCCCC4)C(=O)NC2=O)c2ccccc21
OUTPUT: inactive

INPUT: Entry CC(=O)OC1OC([C@@H]2c3cccc(O)c3C(=O)c3c(O)cc(C)cc32)C(O)C(O)C1O (stereo not given in full) : call = ?
OUTPUT: active

INPUT: I would be grateful if you could indicate the recorded call for CC1CCc2nc[nH]c(=O)c21 (stereo not given) .
OUTPUT: inactive

INPUT: Give the logged outcome of this assay for the following compound: CCC[CH2][Sn]([CH2]CCC)([S]c1cccc2cccnc12)[S]c1cccc2cccnc12
OUTPUT: active

====

Would you mind telling me the reported TGI of each entry?
Test system: CAKI-1 renal
Experiment: NCI tumour cell line growth inhibition, 48 h

INPUT: Data request, read-out TGI, for C=C(C)C(OC)C(O)CC1(C)CC(O)CC(C)(C2CCC3OC(C4(C)CCC(Br)C(C)(C)O4)CCC3(C)O2)O1 (centres undefined)
OUTPUT: 38.3 µM

INPUT: Quick check: TGI of COC(=O)/C=C1\S/C(=N\NC(=O)c2cc3ccc2/C=C\c2ccc(cc2)/C=C\3)N(c2ccccc2)C1=O ?
OUTPUT: 30 µM

INPUT: // returns reported TGI for input COc1cc2cc(OC)c3cc4c(cc3c2c(OC)c1OC)OCO4
OUTPUT: > 100 µM

INPUT: Can you share its TGI? I mean this molecule: Nc1nc(SCCc2ccccc2)c2[nH]cnc2n1
OUTPUT: > 100 µM

INPUT: Entry CCOC(=O)c1csc(NC(=O)CN2CCOCC2)n1 has what TGI?
OUTPUT: > 100 µM

INPUT: Give its TGI value. Item: Cc1c(C(=O)CC(=O)C(=O)Nc2ccccc2C(F)(F)F)[n+](=O)c2ccccc2n1[O-]
OUTPUT: > 100 µM

INPUT: Name the reported TGI value associated with the molecule N#CC1(C#N)N[C@@H](c2ccsc2)[C@H]2C(=O)N(c3ccccc3)C(=O)[C@H]21
OUTPUT: > 100 µM

INPUT: What value of TGI has been recorded for this entry: O=[N+]([O-])c1ccc2c(c1)/C(=N/N=C1c3ccccc3Cc3ccccc31)c1cc([N+](=O)[O-])cc([N+](=O)[O-])c1-2
OUTPUT: 9.36 µM

INPUT: Data request, read-out TGI, for CO/C(=N\N=C\c1ccc(C(F)(F)F)cc1)c1ccncc1
OUTPUT: > 10 µM
